Cited source for all entries: patent US20250276073A1

- testedTarget: T1, Recombinant human His-tagged TfR1 (a.a. 89-760) (ACRO Biosystems, CD1-H5243) (human, UniProt P02786 89-760)
- T1 construct: range 89-760; Bought protein; Captured and amine-coupled on an NTA chip; also called human TfR1; transferrin receptor 1; not shown: His tag (printed 'Hiss-tagged')
- T1 sequence (P02786 89-760 limits assumed): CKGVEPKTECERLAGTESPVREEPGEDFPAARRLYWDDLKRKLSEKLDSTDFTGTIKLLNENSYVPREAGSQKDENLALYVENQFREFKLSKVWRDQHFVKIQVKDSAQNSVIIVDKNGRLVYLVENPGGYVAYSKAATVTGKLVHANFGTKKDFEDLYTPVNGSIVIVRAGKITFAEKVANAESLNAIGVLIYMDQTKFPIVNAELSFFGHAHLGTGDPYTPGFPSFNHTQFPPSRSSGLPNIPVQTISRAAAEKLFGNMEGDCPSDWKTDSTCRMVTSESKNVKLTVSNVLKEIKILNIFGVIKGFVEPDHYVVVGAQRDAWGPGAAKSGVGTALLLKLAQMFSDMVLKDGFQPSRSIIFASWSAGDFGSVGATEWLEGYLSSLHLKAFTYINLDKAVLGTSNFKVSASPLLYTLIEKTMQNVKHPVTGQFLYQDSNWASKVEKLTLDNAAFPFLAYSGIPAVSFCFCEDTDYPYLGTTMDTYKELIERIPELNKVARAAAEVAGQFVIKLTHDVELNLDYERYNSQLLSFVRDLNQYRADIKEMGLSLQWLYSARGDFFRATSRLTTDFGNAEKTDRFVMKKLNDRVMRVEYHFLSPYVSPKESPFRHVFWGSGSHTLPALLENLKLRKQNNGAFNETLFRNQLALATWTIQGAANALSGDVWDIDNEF
- test: SPR (Biacore), TfR1 captured/coupled on NTA chip, peptide as analyte
valueType: pKd
// pKd is dimensionless: -log10 of concentration (M)

Recorded pKd, per entry:
CPXDAYLGCXSYCEXW (CP[HyP]DAYLGC[tBuGly]SYCE[Oxa]W: HyP at 3, tBuGly at 10, Oxa at 15; N-terminal acetyl; C-terminal CONH2; Cys 1, 9, 13 bonded to TATB scaffold, Bicyclic peptide) [BCY23205] ... 7.96
CPXDAYLGCXSYCEPX (CP[HyP]DAYLGC[tBuGly]SYCEP[hTyr]: HyP at 3, tBuGly at 10, hTyr at 16; N-terminal acetyl; C-terminal CONH2; Cys 1, 9, 13 bonded to TATB scaffold, Bicyclic peptide) [BCY23211] ... 8.11

pKd measured on CPXDAXLGCXSYCEPW (CP[HyP]DA[hTyr]LGC[tBuGly]SYCEPW: HyP at 3, hTyr at 6, tBuGly at 10; N-terminal acetyl; C-terminal CONH2; Cys 1, 9, 13 bonded to TATB scaffold, Bicyclic peptide) [BCY23188] = 6.96
